test system: SK-MEL-28; experiment: NCI tumour cell line growth inhibition, 48 h
The source made the active and inactive calls. Cut-off read from the data, not from the text of the source: active = GI50 up to about 1.1 µM and inactive = higher.
Labels: t (active), f (inactive)

INSERT INTO assay_data (molecule_smiles, assigned_class) VALUES
  ('C=C1C(=O)O[C@@H]2[C@H](O)[C@@H](C)[C@@H]3C=CC(=O)[C@@]3(C)[C@@H](OC(=O)/C(C)=C/C)[C@H]12', 't'),
  ('N#Cc1c(N2CCOCC2)ncn(-c2ccc(Cl)cc2)c1=O', 'f'),
  ('Cc1ccc(O)c(C(c2ccc(C(c3cc(C)ccc3O)c3cc(C)ccc3O)cc2)c2cc(C)ccc2O)c1', 'f'),
  ('COc1ccc(C(=O)/C=C/c2ccc(OCCCCCCCCCCOc3ccc(/C=C/C(=O)c4ccc(OC)cc4)cc3)cc2)cc1', 'f'),
  ('C/C(CC(=O)Nc1ccc([N+](=O)[O-])cc1)=N\NC(N)=O', 'f'),
  ('O=C1CCCCC/C1=C\c1ccc([N+](=O)[O-])cc1', 'f'),
  ('Brc1ccc(-c2[nH]c3ccccc3c2/N=N\c2ccccc2)cc1', 'f'),
  ('O=C1/C(=C/c2ccc(Cl)cc2)CSC/C1=C\c1ccc(Cl)cc1', 'f'),
  ('CCCc1n[nH]c(CCC(=O)N(Cc2ccccc2)Cc2ccccc2)c1CC', 'f');

###

system: SNB-19; assay: NCI tumour cell line growth inhibition, 48 h
Active and inactive are the calls of the source. Cut-off read from the data, not from the text of the source: active = GI50 up to about 1.1 µM and inactive = higher.
MEASURED_ATTRIBUTE: GI50

INSERT INTO assay_data (compound, assay_value) VALUES
  ('Cc1cc2c(c(=O)n1C)SCC2', '> 100 µM (inactive)'),
  ('COC(=O)C1C(O)C(C)C(O)C(C)(O)C=C(C)C2=C3C(=C(C)C(=O)c4c(O)c(c(C)c(OC(C)=O)c43)NC(=O)C(C)=C/C=C\C(C)(O)C(O)C(C)C1O)OCO2 (stereo unspecified)', '> 100 µM (inactive)'),
  ('COc1cc(/C=C/C(=O)C2(C(=O)/C=C/c3cc(OC)c(OC)c(OC)c3)CCCCC2)cc(OC)c1OC', '36.6 µM (inactive)'),
  ('O=C1/C(=C/c2cccc(Br)c2)CSC/C1=C\c1cccc(Br)c1', '2.88 µM (inactive)'),
  ('CCc1nc(N)nc(N)c1-c1ccc(NCCc2ccccc2)c([N+](=O)[O-])c1', '2.21 µM (inactive)'),
  ('Fc1ccc(C2SCc3nc4ccccc4n32)cc1Cl (stereo unspecified)', '34.4 µM (inactive)');

###

system: ACHN; test: NCI tumour cell line growth inhibition, 48 h
The source made the active and inactive calls. Cut-off read from the data, not from the text of the source: active = GI50 up to about 1.1 µM and inactive = higher.
MEASURED_ATTRIBUTE: GI50

INSERT INTO measurements (molecule, measured_attribute, assay_value) VALUES
  ('c1ccc2c(c1)Cc1c(Cc3csc4ccccc34)ccc3cccc-2c13', 'GI50', '> 100 µM (inactive)'),
  ('CN1N(c2ccccc2)C(=O)C2=NC=C(C#N)C(=N)C21C (stereo unspecified)', 'GI50', '97.7 µM (inactive)'),
  ('COc1cc2c(cc1OC)C1Cc3cc(OC)c(OC)cc3N1CC2 (stereo unspecified)', 'GI50', '22.3 µM (inactive)'),
  ('N#Cc1c(N2CCOCC2)ncn(-c2ccc(Cl)cc2)c1=O', 'GI50', '> 100 µM (inactive)'),
  ('CCOC(=O)COc1ccc2c(C)cc(=O)oc2c1', 'GI50', '> 100 µM (inactive)'),
  ('NC(=O)c1csc(C2C=CC(CO)O2)n1 (stereo unspecified)', 'GI50', '> 100 µM (inactive)');
